Cited source: paper PMC3175016

System: male Fischer 344 rats
PROCEDURE_DETAILS: Liver weight 24 h after a single i.p. dose
Format: in vivo
ASSAY_CONTEXT: dose 0.4 (head mg/kg; text mmol/kg), i.p. in corn oil, mean ± SE, N = 3–4
Marks after values point to notes of the source that are not given here.
Recorded Liver weight for the following molecules

{"columns": ["MOLECULE", "Liver weight"],
 "data": [
  ["O=C(O)CSC(=O)Nc1cc(Cl)cc(Cl)c1 [DCTA]", "3.62 ± 0.05^b g/100% BW"],
  ["Cc1cc(C)cc(N2C(=O)CSC2=O)c1 [DMPT]", "4.10 ± 0.20*,^b g/100% BW"],
  ["O=C1SCCN1c1cc(Cl)cc(Cl)c1 [2-DCTD, 3-(3,5-dichlorophenyl)-2-thiazolidinone]", "3.71 ± 0.11^d g/100% BW"],
  ["O=C1CSC(=O)N1c1ccc(Cl)cc1 [CPTD, 3-(4-chlorophenyl)-2,4-thiazolidinedione]", "3.84 ± 0.07^c g/100% BW"],
  ["CC1SC(=O)N(c2cc(Cl)cc(Cl)c2)C1=O (centres unmarked) [DPMT]", "3.81 ± 0.22^a g/100% BW"]
]}
